# collection of MIC values tested on E. faecium ATCC 35667
API: value field is a number in µg/mL; no unit string.

Worked cases, answers included:
molecule	obsValue
NCCSc1cncc(SC2=C(C(=O)O)N3C(=O)C(NC(=O)/C(=N\O)c4cccc(N)n4)C3SC2)n1 (stereo not shown)	8
NCCSc1nccc(SC2=C(C(=O)O)N3C(=O)[C@@H](NC(=O)/C(=N\O)c4cccc(N)n4)[C@H]3SC2)n1	16
NCCSCc1nc(N)sc1SC1=C(C(=O)O)N2C(=O)[C@@H](NC(=O)/C(=N\O)c3nc(N)sc3Cl)[C@H]2SC1	1

Req: Tell me its MIC given "NCCSCc1cnccc1SC1=C(C(=O)O)N2C(=O)[C@@H](NC(=O)/C(=N\O)c3cccc(N)n3)[C@H]2SC1" as the entry.
Resp: 1

----------
assayNotes: In vitro stability of compounds in rat serum
Assay type: in vitro ADME
conditionSet: after 60 min exposure to rat serum, 37° C., HPLC
reportedEndpoint: Stability in rat serum (% loss) (%)
Field format: number, assumed %, no unit text.

molecule	Stability in rat serum (% loss) [%]
NCCSCc1ncccc1SC1=C(C(=O)O)N2C(=O)[C@@H](NC(=O)/C(=N\O)c3nsc(N)n3)[C@H]2SC1 [Cmpd 17]	2
N=C(N)NCCSCc1ncccc1SC1=C(C(=O)O)N2C(=O)[C@@H](NC(=O)/C(=N\O)c3nc(N)sc3Cl)[C@H]2SC1 [Cmpd 15]	38
NCCSCc1nc(N)sc1SC1=C(C(=O)O)N2C(=O)[C@@H](NC(=O)/C(=N\O)c3nc(N)sc3Cl)[C@H]2SC1 [Cmpd 3]	3
NCCSCc1cnccc1SC1=C(C(=O)O)N2C(=O)[C@@H](NC(=O)/C(=N\O)c3nc(N)sc3Cl)[C@H]2SC1 [Cmpd 20]	70
NCCSCc1ccncc1SC1=C(C(=O)O)N2C(=O)[C@@H](NC(=O)/C(=N\O)c3nc(N)sc3Cl)[C@H]2SC1 [Cmpd 21]	3

Req: Indicate the recorded Stability in rat serum (% loss) value for this molecule: NCCSCc1nc(SCCN)sc1SC1=C(C(=O)O)N2C(=O)[C@@H](NC(=O)/C(=N\O)c3nc(N)sc3Cl)[C@H]2SC1 [Cmpd 11]
Resp: 47

Req: Given NCCSCc1cnccc1SC1=C(C(=O)O)N2C(=O)[C@@H](NC(=O)/C(=N\O)c3nsc(N)n3)[C@H]2SC1 [Cmpd 18] , respond with its Stability in rat serum (% loss).
Resp: 23

----------
Tested on: E. coli ATCC25992
Examples of compounds with documented MIC follow.

Please review the entries below; each comes with its answer.
compound	obsValue
NCCNc1nc(CSCCN)c(SC2=C(C(=O)O)N3C(=O)[C@@H](NC(=O)/C(=N\O)c4nc(N)sc4Cl)[C@H]3SC2)s1 [Cmpd 16]	4 µg/mL
NCCSCc1ncsc1SC1=C(C(=O)O)N2C(=O)[C@@H](NC(=O)/C(=N\O)c3cccc(N)n3)[C@H]2SC1 [Cmpd 23]	16 µg/mL

Req: Fill in MIC for NCCSCc1ccncc1SC1=C(C(=O)O)N2C(=O)[C@@H](NC(=O)/C(=N\O)c3cccc(N)n3)[C@H]2SC1 [Cmpd 28] tested with E. coli ATCC25992.
Resp: 32 µg/mL

Req: For E. coli ATCC25992, give the measured MIC of the entry N=C(N)NCCSCc1nc(N)sc1SC1=C(C(=O)O)N2C(=O)[C@@H](NC(=O)/C(=N\O)c3nc(N)sc3Cl)[C@H]2SC1 [Cmpd 26]
Resp: 4 µg/mL

Req: State, for E. coli ATCC25992, measured MIC of the compound listed here: NCCSc1nccc(SC2=C(C(=O)O)N3C(=O)[C@@H](NC(=O)/C(=N\O)c4cccc(N)n4)[C@H]3SC2)n1 [Cmpd 8]
Resp: 16 µg/mL

Req: Answer with MIC of NCCSCc1nc(Cl)sc1SC1=C(C(=O)O)N2C(=O)[C@@H](NC(=O)/C(=N\O)c3cccc(N)n3)[C@H]2SC1 [Cmpd 29] measured for E. coli ATCC25992.
Resp: 16 µg/mL

Req: Quote E. coli ATCC25992 MIC for entry NCCSCc1nc(SCCN)sc1SC1=C(C(=O)O)N2C(=O)[C@@H](NC(=O)/C(=N\O)c3nc(N)sc3Cl)[C@H]2SC1 [Cmpd 11] .
Resp: 2 µg/mL

----------
assayNotes: In vitro stability of compounds in rat serum
Type: in vitro ADME
conditionSet: after 60 min exposure to rat serum, 37° C., HPLC
So basically: is Stability in rat serum (% loss) under 30%? Then 1.0. Not under? Then 0.0.

Worked set:
molecule	classification
NCCSCc1cnccc1SC1=C(C(=O)O)N2C(=O)C(NC(=O)/C(=N\O)c3csc(N)n3)C2SC1 (stereo not drawn)	1.0
NCCSCc1ncccc1SC1=C(C(=O)O)N2C(=O)[C@@H](NC(=O)/C(=N\O)c3nc(N)sc3Cl)[C@H]2SC1	1.0
NCCSCc1cnccc1SC1=C(C(=O)O)N2C(=O)[C@@H](NC(=O)/C(=N\O)c3cccc(N)n3)[C@H]2SC1	0.0

Req: Identify whether the molecule "NCCSCc1ncsc1SC1=C(C(=O)O)N2C(=O)[C@@H](NC(=O)/C(=N\O)c3cccc(N)n3)[C@H]2SC1" records Stability in rat serum (% loss) below 30%.
Resp: 1.0

Req: Given the entry "N=C(N)NCCSCc1ncccc1SC1=C(C(=O)O)N2C(=O)[C@@H](NC(=O)/C(=N\O)c3nsc(N)n3)[C@H]2SC1" , would its reported Stability in rat serum (% loss) be below 30%?
Resp: 1.0

Req: Check if Stability in rat serum (% loss) falls below 30% for "N=C(N)NCCSCc1cnccc1SC1=C(C(=O)O)N2C(=O)[C@@H](NC(=O)/C(=N\O)c3nsc(N)n3)[C@H]2SC1" .
Resp: 0.0

----------
// MIC lookup, one value per entry
Tested on: E. faecium ATCC 35667
assayNotes: Broth microdilution MIC (NCCLS)
Type: cell-based
conditionSet: Enterococcus faecium, ATCC35667
Kindly report the value followed by its unit.

Example entries and their recorded answers appear below.
molecule	MIC
NCCSCc1cnccc1SC1=C(C(=O)O)N2C(=O)C(NC(=O)/C(=N\O)c3csc(N)n3)C2SC1 (centres unmarked)	2 µg/mL
N=C(N)NCCSCc1nc(N)sc1SC1=C(C(=O)O)N2C(=O)[C@@H](NC(=O)/C(=N\O)c3nc(N)sc3Cl)[C@H]2SC1	0.5 µg/mL
NCCSCc1cnccc1SC1=C(C(=O)O)N2C(=O)[C@@H](NC(=O)/C(=N\O)c3nc(N)sc3Cl)[C@H]2SC1	0.5 µg/mL
NCCSc1nccnc1SC1=C(C(=O)O)N2C(=O)C(NC(=O)/C(=N\O)c3cccc(N)n3)C2SC1 (centres unmarked)	8 µg/mL

Req: Name the recorded MIC of "NCCNc1nc(CSCCN)c(SC2=C(C(=O)O)N3C(=O)[C@@H](NC(=O)/C(=N\O)c4nc(N)sc4Cl)[C@H]3SC2)s1" , assay system E. faecium ATCC 35667.
Resp: 0.5 µg/mL

Req: # return MIC for "COc1nc(CSCCN)c(SC2=C(C(=O)O)N3C(=O)[C@@H](NC(=O)/C(=N\O)c4cccc(N)n4)[C@H]3SC2)s1" , test system: E. faecium ATCC 35667
Resp: 4 µg/mL

Req: Look up and report measured MIC (E. faecium ATCC 35667) for the following molecule: "NCCSCc1nsc(SC2=C(C(=O)O)N3C(=O)[C@@H](NC(=O)/C(=N\O)c4nc(N)sc4Cl)[C@H]3SC2)n1"
Resp: 0.5 µg/mL

Req: Lab note: E. faecium ATCC 35667 assay, enter MIC for "Cc1nc(CSCCN)c(SC2=C(C(=O)O)N3C(=O)[C@@H](NC(=O)/C(=N\O)c4cccc(N)n4)[C@H]3SC2)s1" here
Resp: 4 µg/mL

Req: Find MIC for "NCCSCc1csc(SC2=C(C(=O)O)N3C(=O)[C@@H](NC(=O)/C(=N\O)c4cccc(N)n4)[C@H]3SC2)n1" on E. faecium ATCC 35667 and write it down.
Resp: 0.25 µg/mL

Req: Please indicate recorded MIC of "NCCSCc1nnc(SC2=C(C(=O)O)N3C(=O)[C@@H](NC(=O)/C(=N\O)c4nc(N)sc4Cl)[C@H]3SC2)s1" measured with E. faecium ATCC 35667.
Resp: 1 µg/mL

Req: Identify measured MIC obtained with E. faecium ATCC 35667 for "NCCSCc1ccncc1SC1=C(C(=O)O)N2C(=O)[C@@H](NC(=O)/C(=N\O)c3cccc(N)n3)[C@H]2SC1" .
Resp: 4 µg/mL

Req: System E. faecium ATCC 35667. Read-out MIC. Item "NCCSCc1nc(Cl)sc1SC1=C(C(=O)O)N2C(=O)[C@@H](NC(=O)/C(=N\O)c3cccc(N)n3)[C@H]2SC1" . Report value.
Resp: 2 µg/mL

Req: // output MIC; input "NCCSCc1cnccc1SC1=C(C(=O)O)N2C(=O)[C@@H](NC(=O)/C(=N\O)c3nsc(N)n3)[C@H]2SC1" ; system E. faecium ATCC 35667
Resp: 0.5 µg/mL

Req: Give reported MIC for "NCCSc1nnc(SC2=C(C(=O)O)N3C(=O)[C@@H](NC(=O)/C(=N\O)c4nc(N)sc4Cl)[C@H]3SC2)s1" (E. faecium ATCC 35667)
Resp: 0.5 µg/mL
